Cited source for all entries: patent US20260297029A1

Measured half-life, listed per entry for reference.
assay: in vitro; assay type: in vitro ADME; settings: mouse, plasma, only time points within the initial rate used where fast then slow disappearance, read-out: T1/2
Provide only the numeric value, understood in min.

Examples from the recorded data:
INSERT INTO assay_data (compound, metric, numeric_result) VALUES
  ('CN(C)C(=O)OC[N+](C)(C)CCc1c[nH]c2ccccc12', 'half-life', 156),
  ('CC(C)(C)C(=O)OC[N+](C)(C)CCc1c[nH]c2ccccc12', 'half-life', 9.41);

Okay, next one:
Entry under review: CC(C)[N+](C)(CCOC(=O)C1c2ccccc2Oc2ccccc21)C(C)C [Propantheline, reference compound] . Reported half-life?
32.8

---

assay: physchem; type: physicochemical; conditions: PBS (pH 6.5); if calculated T1/2 < 0, reported as 9999 min; read-out: T1/2
metric: half-life (days)
Provide only the numeric value, understood in days.

Entry under review: CC(C)(C)C(=O)OC[N+](C)(C)CCc1c[nH]c2ccccc12 . Reported half-life?
2.64

---

Measured half-life, listed per entry for reference.
assay: physchem; assay type: physicochemical; conditions: SGF with pepsin; if calculated T1/2 < 0, reported as 9999 min; read-out: T1/2
Provide only the numeric value, understood in h.

INSERT INTO results (molecule, metric, unit_label, numeric_result) VALUES
  ('CC[C@H]1OC(=O)[C@H](C)[C@@H](O[C@H]2C[C@@](C)(OC)[C@@H](O)[C@H](C)O2)[C@H](C)[C@@H](O[C@@H]2O[C@H](C)C[C@H](N(C)C)[C@H]2O)[C@](C)(O)C[C@@H](C)C(=O)[C@H](C)[C@@H](O)[C@]1(C)O [Erythromycin, reference compound]', 'half-life', 'h', 0.6);

Entry under review: CC(C)(C)C(=O)OC[N+](C)(C)CCc1c[nH]c2ccccc12 [Compound 2] . Reported half-life?
88.8

---

assay: physchem; type: physicochemical; details: pbs, pH 6.5
metric: remaining at 4 h (%)
Provide only the numeric value, understood in %.

Entry under review: O=C(O)CCCc1ccc(N(CCCl)CCCl)cc1 [Chlorambucil, reference compound] . Reported remaining at 4 h?
1.83

---

Measured solubility kinetic at 2 h, listed per entry for reference.
test: physchem; type: physicochemical; conditions: FaSSIF, RT, 30 mM DMSO stock, value close to or above 300 μM may mean solubility at or above 300 μM
Provide only the numeric value, understood in µM.

Examples from the recorded data:
INSERT INTO measurements (molecule, numeric_result) VALUES
  ('CC(C)(C)C(=O)OC[N+](C)(C)CCc1c[nH]c2ccccc12', 314),
  ('O=C(O)Cc1ccccc1Nc1c(Cl)cccc1Cl [Diclofenac, reference compound]', 276);

Entry under review: CN(C)C(=O)OC[N+](C)(C)CCc1c[nH]c2ccccc12 . Reported solubility kinetic at 2 h?
290

---

assay: physchem; format: physicochemical; settings: SGF without pepsin, 120 min; read-out: Remaining Percentage
Measured remaining at 2 h, listed per entry for reference.
Provide only the numeric value, understood in %.

INSERT INTO assay_data (compound, metric, numeric_result) VALUES
  ('CN(C)C(=O)OC[N+](C)(C)CCc1c[nH]c2ccccc12', 'remaining at 2 h', 104),
  ('CC(C)(C)C(=O)OC[N+](C)(C)CCc1c[nH]c2ccccc12', 'remaining at 2 h', 104);

Okay, next one:
Entry under review: CC[C@H]1OC(=O)[C@H](C)[C@@H](O[C@H]2C[C@@](C)(OC)[C@@H](O)[C@H](C)O2)[C@H](C)[C@@H](O[C@@H]2O[C@H](C)C[C@H](N(C)C)[C@H]2O)[C@](C)(O)C[C@@H](C)C(=O)[C@H](C)[C@@H](O)[C@]1(C)O [Erythromycin, reference compound] . Reported remaining at 2 h?
9.44
